system: RS4;11 leukaemia tumour line; test: In vitro cytotoxicity, Microculture Tetrazolium Assay (MTT); format: cell-based; conditions: Homo sapiens; RS4;11 cells, 48 hours exposure
Structures can show the parent of a compound that is named as a salt.
READOUT LABEL: IC50 (nM)
Answer with a number only, understood to be in nM.

Illustrative cases are given below, each with its answer.
| COMPOUND | READOUT LABEL | OBSERVED MEASUREMENT |
| --- | --- | --- |
| Cc1cc(C(=O)N(c2ccc(O)cc2)c2ccc3c(ccn3C)c2)cn1-c1cc(Cl)ccc1C(=O)N1Cc2ccccc2C[C@H]1CN1CCN(C)CC1 | IC50 | 59.8 |
| CN1CCN(C[C@@H]2Cc3ccccc3CN2C(=O)c2cc(F)c(Cl)cc2-n2cc(C(=O)N(c3ccc(O)cc3)c3ccc4c(ccn4C)c3)c3ccccc32)CC1 [Example 78, hydrochloride] | IC50 | 81.4 |
| COc1cc(-n2cc(C(=O)N(c3ccccc3)c3ccccc3)c3ccccc32)c(C(=O)N2Cc3ccccc3C[C@H]2CN2CCN(C)CC2)cc1O [Example 181, dihydrochloride] | IC50 | 205 |
| CN1CCN(C[C@@H]2Cc3ccccc3CN2C(=O)c2cc3c(cc2-n2cc(C(=O)N(CCc4ccccc4)c4ccc(Cl)cc4)c4ccccc42)OCO3)CC1 | IC50 | 2420 |

Task item: Can you look up the measured IC50 of Cc1cc(C(=O)N(c2ccccc2)c2ccccc2)cn1-c1ccccc1C(=O)N1Cc2ccccc2C[C@H]1CN [Example 5, trifluoroacetate] for me?
Reply: 2590

Task item: Cool, now Cc1cc(C(=O)N(c2ccccc2)c2ccc(O)cc2)cn1-c1cc2c(cc1C(=O)N1Cc3ccccc3C[C@H]1CN1CCN(C)CC1)OCO2
Reply: 140

Task item: Cool, now CN1CCN(C[C@@H]2Cc3ccccc3CN2C(=O)c2cc3c(cc2-n2cc(C(=O)N(c4ccc(O)cc4)c4ccc(O)cc4)c4ccccc42)OCO3)CC1
Reply: 52.2
